- study_system: Prostaglandin G/H synthase 2 (Homo sapiens) (UniProt P35354)
- Sequence (P35354 whole entry): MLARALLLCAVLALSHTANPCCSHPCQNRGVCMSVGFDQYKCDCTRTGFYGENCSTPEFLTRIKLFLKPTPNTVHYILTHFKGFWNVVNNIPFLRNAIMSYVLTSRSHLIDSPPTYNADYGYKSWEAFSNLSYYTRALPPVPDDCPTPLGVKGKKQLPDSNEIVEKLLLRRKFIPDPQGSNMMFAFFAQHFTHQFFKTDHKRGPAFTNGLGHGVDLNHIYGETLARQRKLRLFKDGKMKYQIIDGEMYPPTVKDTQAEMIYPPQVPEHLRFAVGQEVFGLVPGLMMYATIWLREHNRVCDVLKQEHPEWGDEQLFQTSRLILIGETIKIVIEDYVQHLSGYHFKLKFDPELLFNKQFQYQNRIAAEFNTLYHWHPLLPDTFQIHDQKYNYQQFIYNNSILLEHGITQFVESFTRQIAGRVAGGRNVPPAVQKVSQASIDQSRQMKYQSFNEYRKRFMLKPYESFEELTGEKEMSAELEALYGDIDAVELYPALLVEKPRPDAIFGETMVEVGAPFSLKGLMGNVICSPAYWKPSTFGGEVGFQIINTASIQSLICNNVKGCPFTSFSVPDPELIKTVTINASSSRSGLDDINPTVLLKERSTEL
- assay_info: Inhibition of COX2-mediated 6-keto PGF1alpha production in IL1-beta stimulated human A549 cells assessed as residual activity at 10 uM after 10 mins by EIA
- Assay type: cell-based
measurement_name: Activity (%)

smiles_repr | reported_measurement
CCOC(=O)C1CCN(C(=O)CCc2cc(-c3ccc(C)cc3)n(-c3ccc4ccccc4n3)n2)CC1 | 66.3
CCOC(=O)C1CCN(C(=O)CCc2cc(-c3ccc(C(F)(F)F)cc3)n(-c3ccc(Cl)nn3)n2)CC1 | 78.6
Cc1ccc(-c2cc(CCC(=O)Oc3ccc(C(C)C)cc3)nn2-c2ccccc2)cc1 | 111
Cc1ccc(-c2cc(CCC(=O)Oc3ccc(C(C)C)cc3)nn2-c2ccc3ccccc3n2)cc1 | 97
CCOC(=O)C1CCN(C(=O)CCc2cc(-c3ccc(C)cc3)n(-c3ccccc3)n2)CC1 | 86.3
Cc1ccc(-c2cc(CCC(=O)N3CCN(Cc4ccc(C(C)(C)C)cc4)CC3)nn2-c2ccccc2)cc1 | 97
Cc1ccc(-c2cc(CCC(=O)N3CCN(Cc4ccc(C(C)(C)C)cc4)CC3)nn2-c2ccc3ccccc3n2)cc1 | 79
CC(C)(C)c1ccc(CN2CCN(C(=O)CCc3cc(-c4ccc(F)cc4)n(-c4ccc(Cl)nn4)n3)CC2)cc1 | 84.2
Cc1ccc(-c2cc(CCC(=O)Oc3ccc(C(C)C)cc3)nn2-c2ccc(Cl)nn2)cc1 | 99.9

Data provenance is ChEMBL document CHEMBL1828531.
